Tested on: BDF1 mice, B16 melanoma ip, median survival T/C
test: NCI In Vivo Anticancer Drug Screen. Data for tumor model B16 Melanoma (intraperitoneal) in B6D2F1 (BDF1) mice
conditionNotes: endpoint: median survival time; dose: 25.0 mg/kg/injection; schedule: Q01DX009 (ip); vehicle: Klucel (hydroxypropylcellulose) (HPC); higher = longer survival
Inconclusive results and toxic doses are left out.
measuredMetric: T/C

Challenge: Could you tell me which T/C is on file for CCCCCCCCCCCCCCCC(=O)N(CCCN)C(C)CCCN(CC)CC (configuration not stated) ?
Response given: 100 % of control

Challenge: What do you get for "C[NH-].C[NH-].C[NH-].C[NH-].[Cl][Rh][Cl]" ?
Response given: 114 % of control

Challenge: What do you get for "COc1ccc2nc3cc(Cl)ccc3c(NCCNCCNCCNc3c4ccc(Cl)cc4nc4ccc(OC)cc34)c2c1" ?
Response given: 113 % of control

----------
System: BDF1 mice, B16 melanoma ip, median survival T/C
test: NCI In Vivo Anticancer Drug Screen. Data for tumor model B16 Melanoma (intraperitoneal) in B6D2F1 (BDF1) mice
conditionNotes: endpoint: median survival time; dose: 6.25 mg/kg/injection; schedule: Q01DX009 (ip); vehicle: water; higher = longer survival
Inconclusive results and toxic doses are left out.
measuredMetric: T/C

INSERT INTO measurements (compound, measuredmetric, result) VALUES
  ('CC1OC(OCc2ccc(-c3ccccc3)cc2)CC(N)C1O (stereo not given)', 'T/C', '99 % of control'),
  ('Cc1cc([N+](=O)[O-])c(S(N)(=O)=O)c([N+](=O)[O-])c1', 'T/C', '110 % of control'),
  ('Nc1n[n+](-c2ccc(Cl)cc2)no1', 'T/C', '107 % of control'),
  ('[Cl][Mn][Cl]', 'T/C', '100 % of control');

Shift focus to the following entry.
Challenge: Could you tell me which T/C is on file for "COc1cc2c(cc1OC)/C(=N/N=C1\CCCc3cc(OC)c(OC)cc31)CCC2" ?
Response given: 100 % of control

----------
System: BDF1 mice, B16 melanoma ip, median survival T/C
test: NCI In Vivo Anticancer Drug Screen. Data for tumor model B16 Melanoma (intraperitoneal) in B6D2F1 (BDF1) mice
conditionNotes: endpoint: median survival time; dose: 12.5 mg/kg/injection; schedule: Q01DX009 (ip); vehicle: saline with Tween-80
Method: The antitumor activity of compounds was measured in mice bearing transplantable tumors. Survival or tumor size were measured and the results are expressed as the measurement made in the treated group (T) divided by the measurement made in the vehicle treated control group (C). The tumor model used in this assay is B16 Melanoma (intraperitoneal) in B6D2F1 (BDF1) mice
Inconclusive results and toxic doses are left out. How the source made its calls: active means survival T/C of 150% or more; inactive means T/C below 125% in these data.
The reply should be one of these categories: yes (1) = active, no (0) = inactive

Use the examples below as a reference point.
INSERT INTO measurements (molecule, assayedsystem, categorylabel) VALUES
  ('CC(C)CNc1ccc(S(=O)(=O)c2ccc(NCC(C)C)c([N+](=O)[O-])c2)cc1[N+](=O)[O-]', 'BDF1 mice, B16 melanoma ip, median survival T/C', 'no (0)'),
  ('Cc1cc(C)c(C(Cl)(Cl)Cl)c(C)c1Cl', 'BDF1 mice, B16 melanoma ip, median survival T/C', 'no (0)'),
  ('Cc1ccccc1SSc1ccccc1C', 'BDF1 mice, B16 melanoma ip, median survival T/C', 'no (0)'),
  ('CSCCC(NC(=O)c1ccccc1)C(=O)O (stereo not given)', 'BDF1 mice, B16 melanoma ip, median survival T/C', 'no (0)'),
  ('COc1cc(Cl)c(CC(=O)c2c[nH]c3ccccc23)cc1OC', 'BDF1 mice, B16 melanoma ip, median survival T/C', 'no (0)');

Challenge: In this assay, the call recorded for "CC(=O)c1ccc2ccccc2c1O" was what?
Response given: no (0)

Challenge: What do you get for "O=C(Nc1ccccc1)Oc1ccc(OCc2ccccc2)cc1" ?
Response given: no (0)

Challenge: What do you get for "Cc1cccc(OCC(=O)O)c1" ?
Response given: no (0)
